target: human Gcp-2 (human, UniProt P80162 38-114, limits assumed); experiment: ELISA, supernatant
READOUT NAME: binding result

[[record]]
binder = "monoclonal antibody 5A13 (antibody, mouse IgG1, V domains shown, mouse IgG1; also called 5A13.1) VH: EVQLQQSGAELVKAGASVKLSCPASGLNIKDTYMHWVKQRPEQGLEWIGRIDPANGNTKFDPKFQGKATITADTSSNTAYLQLSSLTSEDTAVYYCARGVFGFFDYWGQGTTLTVSS VL: DIQMTQSSSSFSVSLGDRVTITCKATEDIYNRLAWYQQKPGSAPRLLISGATSLETGVPSRFSGSGSGKDYTLSITSLQTEDVATYYCQQFWSAPYTFGGGTKLEIK"
readout_name = "binding result"
observed_value = "no binding"

[[record]]
binder = "monoclonal antibody 7H1 (antibody, mouse IgG1, V domains shown, mouse IgG1; also called 7H1.1) VH: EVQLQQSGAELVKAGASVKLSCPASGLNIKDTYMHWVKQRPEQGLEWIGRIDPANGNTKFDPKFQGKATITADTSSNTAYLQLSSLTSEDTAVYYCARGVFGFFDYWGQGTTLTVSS VL: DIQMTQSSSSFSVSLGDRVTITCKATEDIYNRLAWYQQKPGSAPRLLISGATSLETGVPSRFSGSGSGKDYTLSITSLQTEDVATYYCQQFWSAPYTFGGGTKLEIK"
readout_name = "binding result"
observed_value = "no binding"

[[record]]
binder = "monoclonal antibody 4N4 (antibody, mouse IgG1, V domains shown, mouse IgG1; also called 4N4.1) VH: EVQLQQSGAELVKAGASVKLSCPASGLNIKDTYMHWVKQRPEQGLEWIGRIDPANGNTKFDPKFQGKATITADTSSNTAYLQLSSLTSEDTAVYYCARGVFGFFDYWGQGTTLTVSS VL: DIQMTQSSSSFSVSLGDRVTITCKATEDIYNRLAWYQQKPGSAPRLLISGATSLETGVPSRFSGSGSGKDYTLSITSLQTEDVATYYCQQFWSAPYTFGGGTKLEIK"
readout_name = "binding result"
observed_value = "no binding"

